# targetSystem: G protein-activated inward rectifier potassium channel 2 (Homo sapiens) + G protein-activated inward rectifier potassium channel 1 (Homo sapiens) (UniProt P48051+P48549)
# Sequence (P48051 whole entry, looked up): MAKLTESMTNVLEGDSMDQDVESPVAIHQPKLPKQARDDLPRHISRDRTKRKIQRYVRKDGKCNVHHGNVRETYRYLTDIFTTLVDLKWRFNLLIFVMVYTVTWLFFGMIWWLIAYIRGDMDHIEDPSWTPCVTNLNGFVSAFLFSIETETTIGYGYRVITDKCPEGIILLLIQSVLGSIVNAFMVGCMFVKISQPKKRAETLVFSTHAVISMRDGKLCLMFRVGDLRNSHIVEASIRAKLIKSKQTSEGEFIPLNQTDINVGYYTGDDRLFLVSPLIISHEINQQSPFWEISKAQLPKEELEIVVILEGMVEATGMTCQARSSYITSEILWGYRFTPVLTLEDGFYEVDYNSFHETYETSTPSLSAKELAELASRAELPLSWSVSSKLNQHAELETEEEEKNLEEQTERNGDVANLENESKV
# Sequence (P48549 whole entry, looked up): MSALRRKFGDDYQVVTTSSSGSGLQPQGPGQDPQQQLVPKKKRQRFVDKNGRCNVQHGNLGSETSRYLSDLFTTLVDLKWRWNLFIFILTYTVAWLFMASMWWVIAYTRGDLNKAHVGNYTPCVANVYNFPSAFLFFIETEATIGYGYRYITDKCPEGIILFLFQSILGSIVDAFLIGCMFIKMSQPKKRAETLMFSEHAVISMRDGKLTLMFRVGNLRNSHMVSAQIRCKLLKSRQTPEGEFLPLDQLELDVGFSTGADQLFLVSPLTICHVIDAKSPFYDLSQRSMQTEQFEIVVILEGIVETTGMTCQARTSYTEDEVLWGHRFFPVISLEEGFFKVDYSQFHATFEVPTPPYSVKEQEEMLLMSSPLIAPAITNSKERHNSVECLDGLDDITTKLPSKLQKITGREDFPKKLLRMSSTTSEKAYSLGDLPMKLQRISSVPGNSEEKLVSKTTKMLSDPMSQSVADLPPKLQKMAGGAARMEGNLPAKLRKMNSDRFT
# methodSummary: GIRK1/2 thallium flux modulators, retest, confirmation, cell-based, HEK293 rmGlu8/hGIRK1/2, FluoZin-2 (AID 623911)
# experimentalParameters: HEK293 rmGlu8/hGIRK1/2, thallium flux FluoZin-2; actives lie on both sides; glutamate co-added at its EC20 level
The whole screen tested about 2,100 compounds, of which about 770 (37%) were called active.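 The calls were made as follows: active = by-eye trace score of 1 for enhancers or -1 for inhibitors, so actives lie on both sides (some results past the limit were not filed as active); inactive = score 0, or 3 fluorescent, or 4 baseline rise.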 Some of the results follow.
The reply should name one outcome from active, inactive

[ask] How did this test come out for `CCCN1C(=O)/C(=C/c2ccc(C)s2)NC1=S` ?
[reply] active

[ask] What do you have for `O=C(Nc1nc(-c2cc3ccccc3oc2=O)cs1)c1ccc(Br)o1` ?
[reply] inactive

[ask] // repeat for `COc1ccc2nc3oc(C(=O)Nc4ccc(OC)c(OC)c4)cc3cc2c1` and report
[reply] inactive

[ask] Also, O=C(COC(=O)C1CC2C=CC1C2)Nc1ccc2c(c1)OC(F)(F)O2 (stereo not given) please.
[reply] inactive

[ask] What about `CCN1C(=O)/C(=C/c2ccc(C)s2)NC1=S` ?
[reply] active

[ask] Also need Cc1ccc(C(C(=O)NC2CCCC2)N2CCCC(C)C2)cc1 (stereo not given) , thanks.
[reply] active

[ask] For CN(C)c1ccc(/C=N\NC(=S)SCN2C(=O)C3CCC(C)(C2=O)C3(C)C)cc1 (stereo not given) then?
[reply] inactive

[ask] For `O=C(NC(=S)Nc1ccc2c(c1)OCO2)c1ccccc1` then?
[reply] inactive

[ask] What about CCOc1ccc(N2C(=O)CC(SC(=NC)Nc3ccc(F)cc3)C2=O)cc1 (stereo not given) ?
[reply] inactive

[ask] Record: `Cc1cccc2cc(/C=C3\N=C(c4ccccc4)OC3=O)c(N3CCOCC3)nc12`
[reply] inactive

[ask] And `O=C(CN1CCN(Cc2ccccc2)CC1)Nc1cccc(C(F)(F)F)c1` ?
[reply] inactive

[ask] Repeat for the following compound: `CC(C)c1cc(C(F)(F)F)n2nc(C(=O)Nc3ccc4c(c3)OCO4)cc2n1`
[reply] inactive

[ask] // next record CC1=C(C(=O)OCC2CCCO2)C(c2ccc(C)o2)C2=C(CC(c3ccc(F)cc3)CC2=O)N1 (stereo not given)
[reply] active

[ask] For `CC1(C)Cc2ccccc2-c2nnc(SCC(=O)N3CCN(c4ccccc4)CC3)n21` then?
[reply] inactive

[ask] For `CCc1cccc(CC)c1-n1c(SCC(=O)N2CCc3ccccc3C2)nnc1-c1cccnc1` then?
[reply] active

[ask] Further, for `COc1ccccc1Nc1ccc(Nc2ccccc2OC)nn1` ?
[reply] active

[ask] Entry to check: `O=C(c1ccc2nccnc2c1)N1CCN(Cc2ccc3c(c2)OCO3)CC1`
[reply] active

[ask] And then `CCOC(=O)c1cccc(NC(=O)CSc2nnc(-c3cccnc3)n2C)c1` , what is it?
[reply] inactive

[ask] And the next one, CC12CCC(C(=O)N(CSC(=S)N/N=C\c3ccccc3Cl)C1=O)C2(C)C (stereo not given) ?
[reply] inactive

[ask] CC1=C(C)C(c2ccccc2)NC(=S)N1 (stereo not given) ?
[reply] inactive

[ask] Query `O=C(NC(=S)N1CCN(Cc2ccc3c(c2)OCO3)CC1)c1cccc(Br)c1` next
[reply] active

[ask] What do we get for CCc1cc(-c2n[nH]c(=S)n2C(C)c2ccccc2)cs1 (stereo not given) ?
[reply] inactive

[ask] Item: `COc1cccc2sc(Nc3nnc(-c4cccs4)o3)nc12`
[reply] active

[ask] // repeat for CC1CCN(C(C(=O)Nc2ccc3c(c2)OCO3)c2ccccc2)CC1 (stereo not given) and report
[reply] active

[ask] Next entry: `Cc1ccccc1OCC(=O)NNC(=S)NC(=O)c1ccco1`
[reply] active

[ask] Again, but for `Cn1c(SCC(=O)N2c3ccccc3CCc3ccccc32)nnc1-c1ccc(O)cc1`
[reply] inactive

[ask] Try this compound too: `Clc1ccc(OCCn2ccnc2)c(Cl)c1`
[reply] inactive

[ask] Also check `Cc1cc2cc3c(cc2nc1SCC(=O)N1CCN(C(=O)c2ccco2)CC1)OCO3`
[reply] inactive

[ask] Consider next the compound `Cc1ccccc1C(=O)Nc1ccc2nc3n(c(=O)c2c1)CCC3` in the same way.
[reply] inactive

[ask] Here is the next compound: CN1C(=O)c2oc3ccccc3c(=O)c2C1c1ccccn1 (stereo not given)
[reply] inactive

[ask] Then this compound: `CCN(CC)c1ccc(C(=O)NC(=S)N2CCN(Cc3ccc4c(c3)OCO4)CC2)cc1`
[reply] inactive

[ask] Input `O=C1/C(=C/c2ccc(N3CCCC3)cc2)NC(=S)N1C1CC1`
[reply] inactive

[ask] Query `O=C(Nc1ccc(F)cc1)c1cccnc1N1CCOCC1` next
[reply] inactive

[ask] Now the compound `Cc1ccc(CC(=O)N2CCN(c3cccc(C(F)(F)F)c3)CC2)cc1`
[reply] active

[ask] Ok, now CCOC(=O)C1=NNC(C(=O)c2ccc(OC)cc2)C1c1ccccc1 (stereo not given)
[reply] inactive

[ask] Next: `COCCN=c1scc(-c2cccs2)n1/N=C/c1ccc(O)c(O)c1O`
[reply] inactive

[ask] Same thing, different compound: `CCCCn1c(=O)[nH]c2nc3cc(N)ccc3nc2c1=O`
[reply] inactive

[ask] Same again, this time with CCOC(=O)N1CCN(C(=O)c2oc3ccc(S(=O)(=O)N4CC(C)CC(C)C4)cc3c2C)CC1 (stereo not given)
[reply] active

[ask] Follow-up entry: `CCCN1C(=O)/C(=C/c2ccc(N3CCCC3)c(C)c2)NC1=S`
[reply] inactive

[ask] Moving on to the next compound: `COc1ccccc1NC(=O)c1cc(C(=O)Nc2ccccc2OC)cc(N2C(=O)CCC2=O)c1`
[reply] inactive

[ask] Next record, please: CCOC(=O)C1=C(C)NC2=C(C(=O)CC(c3ccc(OC)c(OC)c3)C2)C1c1ccc(C)o1 (stereo not given)
[reply] inactive

[ask] And the next one, `O=c1c2c(nc3c(-c4ccccc4)c[nH]n13)CCCC2` ?
[reply] inactive

[ask] Moving on to `CCOc1ccc(NC(=O)NC23CC4CC(CC(C4)C2)C3)cc1`
[reply] active

[ask] Here is the next compound: `CC(C)(C)S(=O)(=O)c1ccc(S(=O)(=O)C(C)(C)C)s1`
[reply] inactive

[ask] What do you have for `COc1ccccc1-c1ccc(NC2CCCC2)nn1` ?
[reply] inactive

###

# targetSystem: G protein-activated inward rectifier potassium channel 2 (Homo sapiens) + G protein-activated inward rectifier potassium channel 1 (Homo sapiens) (UniProt P48051+P48549)
# methodSummary: GIRK1/2 thallium flux modulators, retest, confirmation, cell-based, HEK293 rmGlu8/hGIRK1/2, FluoZin-2 (AID 623911)
# experimentalParameters: HEK293 rmGlu8/hGIRK1/2, thallium flux FluoZin-2; actives lie on both sides; glutamate co-added at its EC20 level
Among all 2,100 compounds or so, about 770 (37%) were called active.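 The calls were made as follows: active = by-eye trace score of 1 for enhancers or -1 for inhibitors, so actives lie on both sides (some results past the limit were not filed as active); inactive = score 0, or 3 fluorescent, or 4 baseline rise.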 The list shows a part of the results.
The categories you may choose from are active, inactive

[ask] Query: recorded result category for `CC(=O)CN1Cc2ccccc2/C1=N\C(=O)Nc1ccccc1` in this test
[reply] inactive

[ask] // repeat for `O=S(=O)(Nc1ccc2nc(C(F)(F)F)[nH]c2c1)c1ccccc1` and report
[reply] active

[ask] Please give the result for `COc1ccc(CNc2nc(-c3cccnc3)nn2C(=O)c2ccco2)cc1` too.
[reply] inactive

[ask] And the next one, `CSC(=O)NC12CC3CC(CC(C)(C3)C1)C2` ?
[reply] inactive

[ask] Please give the result for `COc1ccc(C(=O)NNC(=S)NC(=O)c2ccco2)cc1` too.
[reply] active

[ask] Input `CC(C)(C)NC(=O)C(=O)NNC(=O)c1ccc(C(C)(C)C)cc1`
[reply] active

[ask] Same question for `CO/N=C(\Cn1ncc(N2CCCC2)c(Cl)c1=O)c1ccc(Cl)cc1` please.
[reply] active

[ask] Further, for `COc1ccc(-c2c(S(=O)(=O)c3ccccc3)cnn2-c2ccccc2)cc1` ?
[reply] active

[ask] Entry `CCOC(=O)c1[nH]c(C)c(C(=O)NC2CCCCC2)c1C` please
[reply] inactive

[ask] Repeat with `Cc1cccc(C(=O)NNC(=O)C(=O)NC(C)(C)C)c1`
[reply] active

[ask] Here is the next compound: CC1CCC(n2c(=S)[nH]c3ccccc3c2=O)CC1 (configuration not stated)
[reply] inactive

[ask] Would you mind doing `COc1ccc(-n2nnnc2SCC(=O)N2CCOCC2)cc1` as well?
[reply] inactive

[ask] Another compound: `CCOc1ccc2nc(/N=C/c3c(C)[nH]n(-c4ccccc4)c3=O)sc2c1`
[reply] active

[ask] # repeat for `CCN(CC)C(=S)NC(=O)c1ccc(Cl)cc1Cl`
[reply] active

[ask] Then what about the compound `CCOC(=O)Cc1csc(NC(=S)NC(=O)c2ccc(C)cc2)n1` ?
[reply] active

[ask] Another compound to look at: `Cc1ccc(-n2[nH]c(C)c(C=Nc3cc(C)ccn3)c2=O)cc1`
[reply] inactive

[ask] Moving on to `O=C(COC(=O)CCC1CCCC1)Nc1nc2c(F)c(F)c(F)cc2s1`
[reply] inactive

[ask] What about `Cc1cccc(NC(=S)NNC(=O)c2csc(C(C)C)c2)c1` ?
[reply] active

[ask] Now this one: `c1cn(CC2(Cn3ccnc3)COC2)cn1`
[reply] inactive

[ask] Again, but for `Cc1ccc(S(=O)(=O)N2CCN(C)CC2)cc1-c1nnc2c3ccccc3c(C)nn12`
[reply] inactive

[ask] Next record, please: `CCCCn1nnc(NC(=S)NC(=O)c2ccc(-c3cccc(Cl)c3Cl)o2)n1`
[reply] inactive

[ask] Would you mind doing `CCCCN(CCCC)c1ccc(C(=O)c2ccccc2C(=O)O)c(O)c1` as well?
[reply] inactive

[ask] Now the same for `COc1ccc(-n2ncc3c(NCc4cccs4)ncnc32)cc1`
[reply] inactive

[ask] Continue with `O=c1c2ccccc2[nH]c(=S)n1CCCN1CCN(C2CCCCC2)CC1`
[reply] active

[ask] Here is the next compound: `CN(C(=S)NC(=O)CCCOc1ccc(Cl)cc1Cl)c1ccccc1`
[reply] inactive

[ask] Cool, now `CC(C)CC(=O)NC(=S)Nc1nc(-c2cccc3ccccc23)cs1`
[reply] inactive

[ask] One more compound: `CCc1cc2cccc(C)c2nc1SCC(=O)c1ccc(NC(C)=O)cc1`
[reply] inactive

[ask] // same read-out, input: `CC(C)COn1c(=S)[nH]c2ccccc2c1=O`
[reply] active

[ask] Could you do the same for `CCCCN(CCCC)C(=S)NC(=O)c1ccccc1Cl` , please?
[reply] active

[ask] And the next one, `CC(C)CNC(=S)Nc1ccc(Oc2ccccc2)cc1` ?
[reply] active

[ask] // repeat for `COc1ccc(/C=C/c2nc3sc4c(c3c(=O)o2)CCC4)cc1` and report
[reply] inactive

[ask] Could you do the same for `COc1ccc2nc(/N=C/c3c(C)[nH]n(-c4ccc(C)cc4C)c3=O)sc2c1` , please?
[reply] active

[ask] // query: `S=C(NCc1ccco1)N/N=C/c1ccc(Cl)cc1`
[reply] inactive

[ask] And `CCOC(=O)c1ccc(NC(=S)NC2CCCC2)cc1` ?
[reply] active

[ask] Now consider `CCN(CC)c1ccc(/C=C2/C(=O)c3ccc(C(=O)O)cc3C2=O)cc1` .
[reply] inactive

[ask] Request: `Cc1ccc(C)c(NC(=S)NNC(=O)c2csc(C(C)C)c2)c1`
[reply] active

[ask] Consider next the compound `S=C(NN=C(C1CC1)C1CC1)Nc1ccccc1` in the same way.
[reply] inactive

[ask] One more compound: `COc1ccc(/C(C)=N/NC(=S)NCc2ccco2)cc1`
[reply] inactive

[ask] // query: `FC(F)(F)Oc1ccc(NC(=S)NCc2ccccc2)cc1`
[reply] inactive

[ask] Quick one: `Cc1ccc(-c2cnc(NC(=O)CCC(=O)N3CCCCC3)n2C)cc1`
[reply] inactive

[ask] Try `CCCCNc1c2c3c(cccc3n(C)c1=O)C(=O)c1ccccc1-2` next.
[reply] inactive

[ask] Then `COc1ccc(-c2c3c(=O)n(C)c(=O)n(C)c3cn2-c2ccccc2)cc1` ?
[reply] inactive

[ask] Also check `COC(=O)c1cc(NC(=O)c2ccoc2C)cc(C(=O)OC)c1`
[reply] inactive

[ask] Quick one: `O=C(NC(=S)Nc1nc2c(s1)CCCC2)c1ccc(C(=O)c2ccccc2)cc1`
[reply] inactive

[ask] Moving on to the next compound: `COc1ccccc1C(=O)NNC(=S)NC(=O)c1ccco1`
[reply] active

[ask] Then this compound: `CO/N=C(\Cn1ncc(N2CCCC2)c(Br)c1=O)c1ccc(Cl)cc1`
[reply] active

[ask] Same thing, different compound: CC1CCCCN1CC(=O)Nc1ccc(Oc2ccccc2)cc1 (configuration not stated)
[reply] inactive
